- studyTarget: T1, CD137-hisFc fusion protein (Sino Biological Cat 10041-H03H) (human, UniProt Q07011 24-186)
- T1 construct: Bought; also called recombinant human CD137 (fused with human Fc and His tag); not shown: His tag and human Fc
- runDescription: BLI Octet, Fab
// label = True if kon is not less than 200000 M⁻¹ s⁻¹, otherwise False

[[record]]
binder = "Fab 5346 (Fab, V domains shown, Fab from E. coli; also called VH22/VL22) VH: EVQLVESGGGLVQPGGSLRLSCAASGFSLSTGGVGVGWIRQAPGKGLEWVSGISGYGSTTYYADSVKGRFTISRDNSKNTLYLQLNSLRAEDTAVYYCAREGSDAVAGDWFDYWGQGTLVTVSS VL: DIQLTQSPSSLSASVGDRVTITCRASQDIRSYLAWYQQKPGKAPKLLIYDASNRATGIPSRFSGSGSGTDFTLTISSLQPEDFATYYCQQGYSIWTFGQGTKVEIKR"
cat = "True"

[[record]]
binder = "Fab 5359 (Fab, V domains shown, Fab from E. coli; also called VH27/VL27) VH: EVQLVESGGGLVQPGGSLRLSCAASGFSLSTSGVGVGWIRQAPGKGLEWLALIDWADDKYYSPSLKSRLTISRDNSKNTLYLQLNSLRAEDTAVYYCARGGSDAVLGDWFAYWGQGTLVTVSS VL: DIQLTQSPSSLSASVGDRVTITCRASQGIGSYLAWYQQKPGKAPKLLIYDASNLETGVPSRFSGSGSGTDFTLTISSLQPEDFATYYCQQGYSIWTFGQGTKVEIKR"
cat = "True"

[[record]]
binder = "Fab 7079 (Fab, V domains shown, Fab from E. coli; also called VH42/VL42) VH: EVQLVESGGGLVQPGGSLRLSCAASGFSLSTSGVGVAWIRQAPGKGLEWVSSISGYGGTTYYADSVKGRFTISRDNSKNTLYLQLNSLRAEDTAVYYCAREGSDTVLGDWFAYWGQGTLVTVSS VL: DIQLTQSPSSLSASVGDRVTITCRASQGISSYLAWYQQKPGKAPKLLIYDASNLETGVPSRFSGSGSGTDFTLTISSLQPEDFATYYCQQYYTTPLTFGQGTKVEIKR"
cat = "False"

[[record]]
binder = "Fab 5342 (Fab, V domains shown, Fab from E. coli; also called VH21/VL21) VH: EVQLVESGGGLVQPGGSLRLSCAASGFSLSTGGVAVGWIRQAPGKGLEWLALIDWAGDKSYSTSLKSRLTISRDNSKNTLYLQLNSLRAEDTAVYYCAREGEDAVTGDWFAYWGQGTLVTVSS VL: DIQLTQSPSSLSASVGDRVTITCQASQDIRTYLAWYQQKPGKAPKLLIYDASNRATGIPSRFSGSGSGTDFTLTISSLQPEDFATYYCQQGYSIWTFGQGTKVEIKR"
cat = "False"

[[record]]
binder = "Fab 7092 (Fab, V domains shown, Fab from E. coli; also called VH48/VL48) VH: EVQLVESGGGLVQPGGSLRLSCAASGFSLSTSGMGVGWIRQAPGKGLEWVSYISGYGGTTYYADSVKGRFTISRDNSKNTLYLQLNSLRAEDTAVYYCAREGSDVVAGDWFAYWGQGTLVTVSS VL: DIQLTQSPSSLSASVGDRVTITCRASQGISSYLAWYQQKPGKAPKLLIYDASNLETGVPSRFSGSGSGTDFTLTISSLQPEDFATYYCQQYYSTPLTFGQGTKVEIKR"
cat = "True"

